target: full length Keap1 protein / full length NRF2 protein (Homo sapiens); construct: full length NRF2 protein and full length Keap1 protein (Keap1 exists a dimer) are used; His; assay: NRF2-Keap1 TR-FRET Low Protein Assay; assay type: binding; settings: 1.25 nM Keap1 FlagHis and 2.5 nM biotin-NRF2 added
pIC50: −log10 of the molar value.
pIC50 values, listed per item
measured_quantity: pIC50

- molecule: "Cn1cc(C2CC2c2c(C(=O)O)cnn2-c2cccc(-c3cccc(OCC4CCN(C(=O)OC(C)(C)C)CC4)c3)c2)nn1 (centres unmarked)"
  study_target: "full length Keap1 protein / full length NRF2 protein (Homo sapiens)"
  result: "7.00 to 8.00"
- molecule: "O=C(O)c1cnn(-c2cccc(-c3cccc(C(=O)N4CCCCC4CCC(F)(F)F)c3F)c2)c1C1CC1 (centres unmarked)"
  study_target: "full length Keap1 protein / full length NRF2 protein (Homo sapiens)"
  result: "7.00 to 8.00"
- molecule: "C[C@H](Oc1cccc(-c2cccc(-n3ncc(C(=O)O)c3[C@@H]3C[C@H]3c3cn(C)nn3)c2)c1F)C1CCCCC1"
  study_target: "full length Keap1 protein / full length NRF2 protein (Homo sapiens)"
  result: "7.00 to 8.00"
- molecule: "C[C@H](Oc1cccc(-c2cccc(-n3ncc(C(=O)OC4CCOC4=O)c3[C@@H]3C[C@H]3c3cn(C)nn3)c2)c1)C1CCCCC1 (some centres unmarked)"
  study_target: "full length Keap1 protein / full length NRF2 protein (Homo sapiens)"
  result: "5.00 to 6.00"
- molecule: "CCC[C@@H]1CCCCN1C(=O)c1cncc(-c2cccc(-n3ncc(C(=O)O)c3C3CC3c3cn(C)nn3)c2)c1 (some centres unmarked)"
  study_target: "full length Keap1 protein / full length NRF2 protein (Homo sapiens)"
  result: "> 8.00"

---

molecular target: full length Keap1 protein / full length NRF2 protein (Homo sapiens, UniProt Q14145); construct: full length NRF2 protein and full length Keap1 protein (Keap1 exists a dimer) are used; His; test: NRF2-Keap1 TR-FRET Low Protein Assay; format: binding; details: 1.25 nM Keap1 FlagHis and 2.5 nM biotin-NRF2 added
Sequence (Q14145 whole entry): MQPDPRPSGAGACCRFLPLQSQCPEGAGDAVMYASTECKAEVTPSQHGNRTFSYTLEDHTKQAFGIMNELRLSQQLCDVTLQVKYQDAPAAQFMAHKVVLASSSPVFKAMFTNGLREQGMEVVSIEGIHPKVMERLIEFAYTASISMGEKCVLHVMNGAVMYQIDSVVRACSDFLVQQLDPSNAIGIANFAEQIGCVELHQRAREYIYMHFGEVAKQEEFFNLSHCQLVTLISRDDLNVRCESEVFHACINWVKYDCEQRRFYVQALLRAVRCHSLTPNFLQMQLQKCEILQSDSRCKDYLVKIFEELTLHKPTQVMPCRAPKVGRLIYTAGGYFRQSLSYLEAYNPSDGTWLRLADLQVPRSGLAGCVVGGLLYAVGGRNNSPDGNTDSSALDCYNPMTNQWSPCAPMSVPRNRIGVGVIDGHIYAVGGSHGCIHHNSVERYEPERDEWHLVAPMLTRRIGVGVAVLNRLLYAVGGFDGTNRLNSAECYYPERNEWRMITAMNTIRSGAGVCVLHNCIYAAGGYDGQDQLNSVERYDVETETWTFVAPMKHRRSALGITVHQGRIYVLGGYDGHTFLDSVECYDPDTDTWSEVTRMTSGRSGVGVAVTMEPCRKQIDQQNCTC
pIC50: −log10 of the molar value.
pIC50 values, listed per item
measured_quantity: pIC50

- molecule: "CCC[C@@H]1CCCCN1C(=O)c1cccc(-c2cccc(-n3ncc(C(=O)O)c3[C@H]3C[C@@H]3c3cn(C)nn3)c2)c1 [Example 51g]"
  result: "6.00 to 7.00"
- molecule: "C[C@H](Oc1cccc(-c2cccc(-n3ncc(C(=O)O)c3[C@@H]3C[C@H]3c3cn(C4CC4)nn3)c2)c1)C1CCCCC1"
  result: "> 8.00"
- molecule: "Cn1cc([C@@H]2C[C@H]2c2c(C(=O)O)cnn2-c2cccc(-c3cccc(S(=O)(=O)N4Cc5ccccc5OC(C)(C)C4)c3)c2)nn1 (racemic)"
  result: "7.00 to 8.00"
- molecule: "C[C@H](Oc1cccc(-c2cccc(-n3ncc(C(=O)O)c3[C@@H]3C[C@H]3c3cn(C4CCNCC4)nn3)c2)c1)C1CCCCC1 (racemic)"
  result: "7.00 to 8.00"
- molecule: "C[C@H](Oc1cccc(-c2cccc(-n3ncc(C(=O)OCOC(=O)C(C)(C)C)c3[C@@H]3C[C@H]3c3cn(C)nn3)c2)c1)C1CCCCC1"
  result: "6.00 to 7.00"
- molecule: "Cn1cc(C2CC2c2c(C(=O)O)cnn2-c2cccc(-c3cccc(OCc4ccccc4)c3)c2)nn1 (stereo not shown)"
  result: "6.00 to 7.00"
- molecule: "CC(Oc1cccc(-c2cccc(-n3ncc(C(=O)O)c3C3CC3c3cn(C)nn3)c2)c1)C1CCCC1 (stereo not shown)"
  result: "7.00 to 8.00"
